What Km was measured for each of the following?
substrate: CCCC(=O)Oc1ccc([N+](=O)[O-])cc1; experiment: purified protein; assay type: biochemical, Lactobacillus johnsonii; settings: HEPES pH 7.80, 25 °C (typical assay; saturation conditions as in ref 14), pH 7.8
Form entry: value (µM) — number only.

Which value of Km has been reported for LJ0536 (cinnamoyl esterase) (Lactobacillus johnsonii; H225A) (protein, full length in p15TV-L, E. coli BL21(DE3); His6-tag removed by TEV for kinetics; crystals: tag uncleaved, protease-treated (subtilisin or V8), residues 1-245 modelled, four C-terminal residues lost) MATITLERDGLQLVGTREEPFGEIYDMAIIFHGFTANRNTSLLREIANSLRDENIASVRFDFNGHGDSDGKFENMTVLNEIEDANAILNYVKTDPHVRNIYLVGHSQGGVVASMLAGLYPDLIKKVVLLAPAATLKGDALEGNTQGVTYNPDHIPDRLPFKDLTLGGFYLRIAQQLPIYEVSAQFTKPVCLIHGTDDTVVSPNASKKYDQIYQNSTLHLIEGADACFSDSYQKNAVNLTTDFLQNNNAF in the records?
190

Form field: reported Km of LJ0536 (cinnamoyl esterase) (Lactobacillus johnsonii; H32A) (protein, full length in p15TV-L, E. coli BL21(DE3); His6-tag removed by TEV for kinetics; crystals: tag uncleaved, protease-treated (subtilisin or V8), residues 1-245 modelled, four C-terminal residues lost) MATITLERDGLQLVGTREEPFGEIYDMAIIFAGFTANRNTSLLREIANSLRDENIASVRFDFNGHGDSDGKFENMTVLNEIEDANAILNYVKTDPHVRNIYLVGHSQGGVVASMLAGLYPDLIKKVVLLAPAATLKGDALEGNTQGVTYNPDHIPDRLPFKDLTLGGFYLRIAQQLPIYEVSAQFTKPVCLIHGTDDTVVSPNASKKYDQIYQNSTLHLIEGADHCFSDSYQKNAVNLTTDFLQNNNAF
130

Name the reported Km value associated with the protein LJ0536 (cinnamoyl esterase) (Lactobacillus johnsonii; Q145A) (protein, full length in p15TV-L, E. coli BL21(DE3); His6-tag removed by TEV for kinetics; crystals: tag uncleaved, protease-treated (subtilisin or V8), residues 1-245 modelled, four C-terminal residues lost) MATITLERDGLQLVGTREEPFGEIYDMAIIFHGFTANRNTSLLREIANSLRDENIASVRFDFNGHGDSDGKFENMTVLNEIEDANAILNYVKTDPHVRNIYLVGHSQGGVVASMLAGLYPDLIKKVVLLAPAATLKGDALEGNTAGVTYNPDHIPDRLPFKDLTLGGFYLRIAQQLPIYEVSAQFTKPVCLIHGTDDTVVSPNASKKYDQIYQNSTLHLIEGADHCFSDSYQKNAVNLTTDFLQNNNAF
290
